Biological target: human ILT4-ECD (human)
Sequence (chain, as listed by the source): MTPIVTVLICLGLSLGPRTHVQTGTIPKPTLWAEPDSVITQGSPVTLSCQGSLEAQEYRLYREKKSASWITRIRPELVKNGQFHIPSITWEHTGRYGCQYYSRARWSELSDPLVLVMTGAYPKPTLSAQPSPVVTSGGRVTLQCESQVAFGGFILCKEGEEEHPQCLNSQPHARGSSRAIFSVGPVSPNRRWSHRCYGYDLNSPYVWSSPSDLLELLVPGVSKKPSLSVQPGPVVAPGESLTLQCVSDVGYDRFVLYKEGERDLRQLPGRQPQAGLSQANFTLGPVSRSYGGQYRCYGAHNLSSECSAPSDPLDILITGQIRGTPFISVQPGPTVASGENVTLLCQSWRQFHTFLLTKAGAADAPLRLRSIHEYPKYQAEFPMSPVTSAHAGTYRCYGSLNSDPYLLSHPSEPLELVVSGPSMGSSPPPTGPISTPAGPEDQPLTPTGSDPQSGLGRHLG
Assay: ELISA
property.name: EC50 (nM)
The reply should be a number in nM, with the unit left off.

PR302951 (antibody, V domains shown) VH: EVQLLESGGGLVQPGGSLRLSCAASRFTFSTYAMSWVRQAPGKGLEWVSSISGSGFNTYYADSVKGRFTISSDSSKNTLYLQMNSLRAEDTAVYYCAKDRQWLVSSFDYWGQGTLVTVSS VL: DIQMTQSPSSLSASVGDRVTITCQASQDISNYLNWYQQKPGKAPKLLIYDASNLETGVPSRFSGSGSGTDFTFTISSLQPEDIATYYCQQYDNLITFGQGTRLEIK	0.015
PR302261 (antibody, V domains shown) VH: EVQLLESGGGLVQSGGSLRLSCAASGFTFSSYAMSWVRQAPGKGLGWVSTISGSGGSAYYADSVKGRFTVSRDNSKKTLYLQMNSLRAEDTAVYFCAILSGDDAFDIWGQGTMVTVSS VL: DVVMTQSPLSLPVTPGEPASISCRSSQSLLRGNGYNYLDWYLQKPGQSPQLLIYLGSNRASGVPDRFSGSGSGTDFTLKISRVEAEDVGIFYCMQALQSPLTFGGGTKVEIK	0.032
PR302264 (antibody, V domains shown) VH: QVQLQQWGAGLLKPSETLSLTCAVYGGSLSGYYWSWIRQPPGKGLEWIGEINHSGGTNYNPSLKSRVTISVPTSKNQFSLKLTSVTAADTAVYYCARGQQQLDWYFDLWGRGTLVTVSS VL: EIVMTQSPATLSVSPGERATLSCRASQNIYSHLVWYQQKPGQAPRLLIYGASTRATGIPARFSGSGSGTEFTLTITSLQSEDFTVYYCQQYNDWPPITFGQGTRLEIR	0.026

Shift focus to the following entry.
Give me measured EC50, please, for this binder: PR302282 (antibody, V domains shown) VH: QVQLVESGGTVVQSGRSLRLSCAASGFTFSSYGMHWVRQAPGKGLEWVAGMWYDGNYKYYADSVKGRFTISRDNSKNTLSLQMNSLRAEDTAVYYCARDSPIGVFDYWGQGTLVTVSS VL: DIQMTQSPSSLSASVGDRVTITCQASQDISNYLNWYQQKPGKAPKLLIYDASNLETGVPSRFSGSGSGTDFTFTISSLQPEDIATYYCQQYDNLITFGQGTRLEIK
0.015
